Entry source: BindingDB's records for doi:10.7270/Q2W37TT2

compounds and their reported IC50
- Tested system: Potassium voltage-gated channel subfamily KQT member 2 (Rattus norvegicus)
- Sequence (O88943 whole entry): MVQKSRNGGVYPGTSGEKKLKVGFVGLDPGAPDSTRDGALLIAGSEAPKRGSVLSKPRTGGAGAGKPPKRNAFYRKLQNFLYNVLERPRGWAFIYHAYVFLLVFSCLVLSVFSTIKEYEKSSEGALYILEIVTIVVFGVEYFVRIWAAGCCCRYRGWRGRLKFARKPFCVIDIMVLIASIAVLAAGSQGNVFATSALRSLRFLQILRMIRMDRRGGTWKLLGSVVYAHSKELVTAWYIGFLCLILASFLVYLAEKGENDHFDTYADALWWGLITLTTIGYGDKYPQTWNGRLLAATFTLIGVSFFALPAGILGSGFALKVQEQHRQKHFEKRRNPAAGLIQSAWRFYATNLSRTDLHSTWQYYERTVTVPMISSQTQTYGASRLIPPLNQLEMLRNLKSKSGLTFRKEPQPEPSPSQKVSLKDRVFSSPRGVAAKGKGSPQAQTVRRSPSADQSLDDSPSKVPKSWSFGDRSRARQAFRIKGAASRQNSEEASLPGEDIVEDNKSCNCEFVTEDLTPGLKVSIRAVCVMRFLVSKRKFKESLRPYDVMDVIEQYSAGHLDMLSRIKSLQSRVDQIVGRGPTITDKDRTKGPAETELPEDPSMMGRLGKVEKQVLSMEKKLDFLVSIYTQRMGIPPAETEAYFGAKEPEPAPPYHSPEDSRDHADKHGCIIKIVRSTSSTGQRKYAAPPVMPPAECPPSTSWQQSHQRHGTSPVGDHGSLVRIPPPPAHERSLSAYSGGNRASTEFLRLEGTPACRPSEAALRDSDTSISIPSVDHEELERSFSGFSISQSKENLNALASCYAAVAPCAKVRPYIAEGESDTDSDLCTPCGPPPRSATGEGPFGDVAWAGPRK
- Assay: blockers of KCNQ2 channel current – cell-based, automated electrophysiology, set II, rat KCNQ2, dose response (AID 588637)
Endpoint name: IC50 (µM)

> print(dat)
                                   compound  endpoint.name  observed.value
1  CC(N=Nc1nc(N2CCCCCC2)nc(N2CCCCCC2)n1)c1ccccc1 (configuration not stated)           IC50            1.62
2  COc1ccc(-[n+]2c(-c3ccccc3)cc(-c3ccc(C)cc3)cc2-c2ccccc2)cc1           IC50            11.1
